Cited source for all entries: PubChem BioAssay AID1845207

tested on: NCI-H1876 tumor spheroid viability; assay: Anticancer human tumor NCI-H1876 cell line growth inhibition; details: second compound 3.16 µM; first compound 0.3 µM; stronger effect = lower value; spheroids with HUVEC and MSC
value-kind: viability, T/C (%)
Return type: number; implicit unit %.

Solved entries (count: 2):
Cc1sc2c(c1C)C(c1ccc(Cl)cc1)=NC(CC(=O)Nc1ccc(O)cc1)c1nnc(C)n1-2 (centres undefined) + Cn1nnc2c(C(N)=O)ncn2c1=O
50.6
CNCc1ccc(-c2cc(-c3nc(-c4ccc(S(=O)(=O)C(C)C)cc4)cnc3N)on2)cc1 + Cn1nnc2c(C(N)=O)ncn2c1=O
29.7

The reported viability, T/C of the compound Cn1ncnc1[C@H]1c2n[nH]c(=O)c3cc(F)cc(c23)N[C@@H]1c1ccc(F)cc1 + Cn1nnc2c(C(N)=O)ncn2c1=O was 20

The reported viability, T/C of the compound O=C(c1cc(Cc2n[nH]c(=O)c3ccccc23)ccc1F)N1CCN(C(=O)C2CC2)CC1 + Cn1nnc2c(C(N)=O)ncn2c1=O was 82.4

====

test system: NCI-H1876 tumor spheroid viability; assay: Anticancer human tumor NCI-H1876 cell line growth inhibition; conditions: second compound 0.00949 µM; first compound 0.3 µM; stronger effect = lower value; spheroids with HUVEC and MSC
Overview of recorded viability, T/C for various compounds
Return type: number; implicit unit %.

Solved entries (count: 3):
O=C(c1cc(Cc2n[nH]c(=O)c3ccccc23)ccc1F)N1CCN(C(=O)C2CC2)CC1 + CC[C@@]1(O)C(=O)OCc2c1cc1n(c2=O)Cc2cc3c(CN(C)C)c(O)ccc3nc2-1
21
Cn1ncnc1[C@H]1c2n[nH]c(=O)c3cc(F)cc(c23)N[C@@H]1c1ccc(F)cc1 + CC[C@@]1(O)C(=O)OCc2c1cc1n(c2=O)Cc2cc3c(CN(C)C)c(O)ccc3nc2-1
19.4
CNCc1ccc(-c2cc(-c3nc(-c4ccc(S(=O)(=O)C(C)C)cc4)cnc3N)on2)cc1 + CC[C@@]1(O)C(=O)OCc2c1cc1n(c2=O)Cc2cc3c(CN(C)C)c(O)ccc3nc2-1
18

The reported viability, T/C of the compound Cc1sc2c(c1C)C(c1ccc(Cl)cc1)=NC(CC(=O)Nc1ccc(O)cc1)c1nnc(C)n1-2 (centres undefined) + CC[C@@]1(O)C(=O)OCc2c1cc1n(c2=O)Cc2cc3c(CN(C)C)c(O)ccc3nc2-1 was 12.2

====

test system: NCI-H1876 tumor spheroid viability; assay: Anticancer human tumor NCI-H1876 cell line growth inhibition; details: second compound 0.003 µM; first compound 1 µM; stronger effect = lower value; spheroids with HUVEC and MSC
Criterion: viability, T/C strictly under 5%. Met: 1 (yes). Not met: 0 (no).

Examples with answers:
CC(C)n1c(=O)n(C)c2cnc3cc(F)c(-c4ccc(OCCCN5CCCCC5)nc4)cc3c21 + CC[C@@]1(O)C(=O)OCc2c1cc1n(c2=O)Cc2cc3c(CN(C)C)c(O)ccc3nc2-1
0 (no)
COc1cc(C)[nH]c(=O)c1CN1CCc2c(Cl)cc(C(OC)C3COC3)c(Cl)c2C1=O (stereo not given) + CC[C@@]1(O)C(=O)OCc2c1cc1n(c2=O)Cc2cc3c(CN(C)C)c(O)ccc3nc2-1
0 (no)
CC1COCCN1c1cc(-c2ccnn2C)c2ccnc(-c3ccn[nH]3)c2n1 (stereo not given) + COc1cc2c(cc1O)CCNC21CSC2c3c(OC(C)=O)c(C)c4c(c3C(COC1=O)N1C(O)C3Cc5cc(C)c(OC)c(O)c5C(C21)N3C)OCO4
1 (yes)
[2H]c1nc(C)nc([2H])c1-c1cc(NC[C@@H](C)c2cccc3c(C(=O)NC)ccnc23)ncn1 + COc1cc2c(cc1O)CCNC21CSC2c3c(OC(C)=O)c(C)c4c(c3C(COC1=O)N1C(O)C3Cc5cc(C)c(OC)c(O)c5C(C21)N3C)OCO4
1 (yes)

Task: Dear reviewer, please state whether CC1COCCN1c1cc(-c2ccnn2C)c2ccnc(-c3ccn[nH]3)c2n1 (stereo not given) + CC[C@@]1(O)C(=O)OCc2c1cc1n(c2=O)Cc2cc3c(CN(C)C)c(O)ccc3nc2-1 has viability, T/C strictly beneath 5%.
Output: 0 (no)

====

Overview of recorded viability, T/C for various compounds
tested on: NCI-H1876 tumor spheroid viability; assay: Anticancer human tumor NCI-H1876 cell line growth inhibition; details: second compound 0.03 µM; first compound 0.3 µM; stronger effect = lower value; spheroids with HUVEC and MSC;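 note: spheroids exposed to compounds for seven days before the viability read; percent of DMSO vehicle control viability so 100% = vehicle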

Solved entries (count: 3):
O=C(c1cc(Cc2n[nH]c(=O)c3ccccc23)ccc1F)N1CCN(C(=O)C2CC2)CC1 + CC[C@@]1(O)C(=O)OCc2c1cc1n(c2=O)Cc2cc3c(CN(C)C)c(O)ccc3nc2-1
12.6%
Cn1ncnc1[C@H]1c2n[nH]c(=O)c3cc(F)cc(c23)N[C@@H]1c1ccc(F)cc1 + CC[C@@]1(O)C(=O)OCc2c1cc1n(c2=O)Cc2cc3c(CN(C)C)c(O)ccc3nc2-1
18%
Cc1sc2c(c1C)C(c1ccc(Cl)cc1)=NC(CC(=O)Nc1ccc(O)cc1)c1nnc(C)n1-2 (centres undefined) + CC[C@@]1(O)C(=O)OCc2c1cc1n(c2=O)Cc2cc3c(CN(C)C)c(O)ccc3nc2-1
10.8%

From here, focus on the item given below.
The reported viability, T/C of the compound CNCc1ccc(-c2cc(-c3nc(-c4ccc(S(=O)(=O)C(C)C)cc4)cnc3N)on2)cc1 + CC[C@@]1(O)C(=O)OCc2c1cc1n(c2=O)Cc2cc3c(CN(C)C)c(O)ccc3nc2-1 was 19%

====

tested on: NCI-H1876 tumor spheroid viability; assay: Anticancer human tumor NCI-H1876 cell line growth inhibition; conditions: second compound 1 µM; first compound 3.16 µM; stronger effect = lower value; spheroids with HUVEC and MSC;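 note: spheroids exposed to compounds for seven days before the viability read; percent of DMSO vehicle control viability so 100% = vehicle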
value-kind: viability, T/C (%)
Return type: number; implicit unit %.

Solved entries (count: 2):
[2H]c1nc(C)nc([2H])c1-c1cc(NC[C@@H](C)c2cccc3c(C(=O)NC)ccnc23)ncn1 + Cn1nnc2c(C(N)=O)ncn2c1=O
86.8
Cc1cc(C)c(CNC(=O)c2cc(-c3ccc(CN4CCOCC4)cc3)cc3c2cnn3C2CCCC2)c(=O)[nH]1 + Cn1nnc2c(C(N)=O)ncn2c1=O
29.3

The reported viability, T/C of the compound CC(C)n1c(=O)n(C)c2cnc3cc(F)c(-c4ccc(OCCCN5CCCCC5)nc4)cc3c21 + Cn1nnc2c(C(N)=O)ncn2c1=O was 27.7

The reported viability, T/C of the compound COc1ccc([C@@H](O)c2cc(-c3ncnc4cc(N5CCOCC5)ccc34)c(F)cc2Cl)nn1 + Cn1nnc2c(C(N)=O)ncn2c1=O was 29

The reported viability, T/C of the compound COc1cc(C)[nH]c(=O)c1CN1CCc2c(Cl)cc(C(OC)C3COC3)c(Cl)c2C1=O (stereo unspecified) + Cn1nnc2c(C(N)=O)ncn2c1=O was 92.7

The reported viability, T/C of the compound CC1COCCN1c1cc(-c2ccnn2C)c2ccnc(-c3ccn[nH]3)c2n1 (stereo unspecified) + Cn1nnc2c(C(N)=O)ncn2c1=O was 11.2

====

System: NCI-H1876 tumor spheroid viability
Assay: Anticancer human tumor NCI-H1876 cell line growth inhibition;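 note: spheroids exposed to compounds for seven days before the viability read; percent of DMSO vehicle control viability so 100% = vehicle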
Settings: second compound 0.03 µM; first compound 0.0316 µM; stronger effect = lower value; spheroids with HUVEC and MSC
Method: Multicellular complex tumor spheroid response to DNA repair inhibitors in combination with DNA-damaging drugs This study explores the anticancer activities of DNA-damaging drugs and inhibitors of DNA damage repair, both as single agents and in combinations. […] Twenty-six patient-derived or established malignant cell lines were evaluated representing sarcoma, melanoma, small cell lung cancer (SCLC), non-small cell lung cancer (NSCLC), as well as bladder, ovarian and pancreatic cancers. […]
Overview of recorded viability, T/C for various molecules

Solved entries (count: 2):
[2H]c1nc(C)nc([2H])c1-c1cc(NC[C@@H](C)c2cccc3c(C(=O)NC)ccnc23)ncn1 + CC[C@@]1(O)C(=O)OCc2c1cc1n(c2=O)Cc2cc3c(CN(C)C)c(O)ccc3nc2-1
3.65%
CC1COCCN1c1cc(-c2ccnn2C)c2ccnc(-c3ccn[nH]3)c2n1 (stereo not drawn) + CC[C@@]1(O)C(=O)OCc2c1cc1n(c2=O)Cc2cc3c(CN(C)C)c(O)ccc3nc2-1
3.3%

From here, focus on the item given below.
The reported viability, T/C of the molecule CC(C)n1c(=O)n(C)c2cnc3cc(F)c(-c4ccc(OCCCN5CCCCC5)nc4)cc3c21 + CC[C@@]1(O)C(=O)OCc2c1cc1n(c2=O)Cc2cc3c(CN(C)C)c(O)ccc3nc2-1 was 2.64%

====

test system: NCI-H1876 tumor spheroid viability; assay: Anticancer human tumor NCI-H1876 cell line growth inhibition; conditions: second compound 0.003 µM; first compound 0.316 µM; stronger effect = lower value; spheroids with HUVEC and MSC;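 note: spheroids exposed to compounds for seven days before the viability read; percent of DMSO vehicle control viability so 100% = vehicle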
Overview of recorded viability, T/C for various compounds
Return type: number; implicit unit %.

CC1COCCN1c1cc(-c2ccnn2C)c2ccnc(-c3ccn[nH]3)c2n1 (configuration not stated) + COc1cc2c(cc1O)CCNC21CSC2c3c(OC(C)=O)c(C)c4c(c3C(COC1=O)N1C(O)C3Cc5cc(C)c(OC)c(O)c5C(C21)N3C)OCO4
0.72

From here, focus on the item given below.
The reported viability, T/C of the compound Cc1cc(C)c(CNC(=O)c2cc(-c3ccc(CN4CCOCC4)cc3)cc3c2cnn3C2CCCC2)c(=O)[nH]1 + COc1cc2c(cc1O)CCNC21CSC2c3c(OC(C)=O)c(C)c4c(c3C(COC1=O)N1C(O)C3Cc5cc(C)c(OC)c(O)c5C(C21)N3C)OCO4 was 0.83
